test_protocol: Clearance in rat liver microsomes at 1 uM in presence of NADPH generating system measured for 10 to 90 mins by LC-MS/MS analysis
Type: ADME, Microsome
endpoint_label: CLH (µL/min/mg)
Give just the number in µL/min/mg; leave the unit off.

Which CLH is listed for "Cc1ccc(Sc2ccccc2N2CCNCC2)c(C)c1" ?
153

Now try "Fc1ccc(N2CCN(CCCc3c[nH]c4ccc(F)cc34)CC2)c(-c2cn[nH]c2)c1" .
192

Now try "Fc1ccc2c(C3CCN(CCCc4c[nH]c5ccc(F)cc45)CC3)noc2c1" .
301

Now try "Fc1ccc(N2CCN(CCCc3c[nH]c4ccc(F)cc34)CC2)c(-c2ccsc2)c1" .
56.5

Now try COc1ccc2[nH]c([S+]([O-])Cc3ncc(C)c(OC)c3C)nc2c1 (stereo not given) .
163

Now try "Fc1ccc2[nH]cc(CCCN3CCN(c4nsc5ccccc45)CC3)c2c1" .
397

Now try "Fc1ccc2[nH]cc(CCN3CCN(c4nsc5ccccc45)CC3)c2c1" .
452

Now try "Fc1ccc(N2CCN(CCCc3c[nH]c4ccc(F)cc34)CC2)c(-c2cncnc2)c1" .
209

Now try "Cn1cc(-c2cc(F)ccc2N2CCN(CCCc3c[nH]c4ccc(F)cc34)CC2)cn1" .
146

Now try "Fc1ccc(N2CCN(CCCc3c[nH]c4ccc(F)cc34)CC2)c(-c2cccnc2)c1" .
240
